tested on: PPARg homodimer (NR concentration 180 nM); test: PBM binding z-score (relative to random genomic background probes); higher = stronger binding; sequences stand for … in GC…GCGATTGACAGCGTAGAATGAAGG
READOUT KIND: PBM binding z-score
Just the number, please, no unit after it.

Here is how some sequences turned out for PBM binding z-score.
| RESIDUE SEQUENCE | MEASURED NUMBER |
| --- | --- |
| TAGCCTAAGTCATGCGGGCCAGTATAGTGTCGGC | -0.139 |
| CGTCCGAGGTCAAGGTCAGTGAAAGAGACTCGAA | 4.23 |

According to the records, this sequence CGAACGAGGTCACCAGGACAGTGAAGAGGTTGGA displays PBM binding z-score of 3.06

PBM binding z-score reading for TCTAGTAGGTCAAAGGTCACACACTCGAAATGCG : 7.45

Input CGTCCAAGGACAATGCTAGGTCAGTGAAAGCATT . Output PBM binding z-score: 0.328

Recorded PBM binding z-score (sequence TATTCAGGGTCAAAGGCCAGAGTACGAATGTCGA ): 3.43

response.value for CCTGCTAGGTCATGGTCAGCGAATCTACAGTATG (field: PBM binding z-score) = 2

CAAACTAGGTCAAGGTCTAAGTCGGTTTGTGCCA yielded PBM binding z-score of 2

According to the records, this sequence CCTCGGAGGTCAACAGGAGGTCAGAGCTGCCAGA displays PBM binding z-score of 5.25

Measured PBM binding z-score of AGAATGAGGTTACCAAAGTTCAGGGAAACGCTTG : 1.31

Lab note: AATACGGGGTCATCGTAGGCCAGAGTACGCACAG gave PBM binding z-score of 3.3

The reported PBM binding z-score of the sequence TATAAAGGGTCAAAGGCCAGAGTACGAATGTCGA was 3.29

Lookup result for CGTCCAAGGTCATAGGGGGTCAGTGAAGACAGAT ; measured PBM binding z-score: 6.75

PBM binding z-score recorded for this sequence, TCTAGTTGGTCACGGAGGTCACAAACGACGGGTA , is 2.5
